Sourced from patent US20250333388A1

Tested on: rice
Measurement description: Safety testing on rice, stem and leaf spray in greenhouse
Format: in vivo
Experimental conditions: stem and leaf spray, dose 37.5 g a.i/ha
Property name: Rice (%) safety (crop damage)
Answer with a number only, understood to be in %.

Worked set:
{"Compound": "Cc1nn(Cc2c(S(C)(=O)=O)ccc(C(=O)c3c(C)nn(C)c3O)c2Cl)c(=O)o1 [Compound 58]", "Rice (%) safety (crop damage)": 0}
{"Compound": "CS(=O)(=O)c1ccc(C(=O)C2C(=O)CCCC2=O)c(Cl)c1 [Control compound A, reference compound]", "Rice (%) safety (crop damage)": 10}
{"Compound": "Cc1nn(C)c(O)c1C(=O)c1ccc(S(C)(=O)=O)cc1Cl [Control compound B, reference compound]", "Rice (%) safety (crop damage)": 10}

Data request: Rice (%) safety (crop damage) for Cc1nn(Cc2c(S(C)(=O)=O)ccc(C(=O)c3c(C4CC4)nn(C)c3OC(=O)c3c(C)nn(C)c3Cl)c2Cl)c(=O)o1 [Compound 201] ?
Data returned: 0

Data request: Rice (%) safety (crop damage) for CCS(=O)(=O)c1ccc(C(=O)C2C(=O)CCCC2=O)c(Cl)c1Cn1nc(C)oc1=O [Compound 6] ?
Data returned: 0

Data request: Rice (%) safety (crop damage) for CS(=O)(=O)c1ccc(C(=O)C2C(=O)CCCC2=O)c(Cl)c1CN1CCOCC1 [Control compound C, reference compound] ?
Data returned: 30

Data request: Rice (%) safety (crop damage) for CCS(=O)(=O)c1ccc(C(=O)c2c(C)nn(C)c2OC(=O)c2cc(C)nn2C)c(Cl)c1Cn1nc(C)oc1=O [Compound 224] ?
Data returned: 0

Data request: Rice (%) safety (crop damage) for Cc1nn(Cc2c(S(=O)(=O)C(C)C)ccc(C(=O)c3c(C)nn(C)c3O)c2Cl)c(=O)o1 [Compound 100] ?
Data returned: 0

* * *

Test system: rice
Measurement description: Safety testing on rice, stem and leaf spray in greenhouse
Type: in vivo
Experimental conditions: stem and leaf spray, dose 300 g a.i/ha
Property name: Rice (%) safety (crop damage)
Answer with a number only, understood to be in %.

Worked set:
{"Molecule": "CCS(=O)(=O)c1ccc(C(=O)C2C(=O)CCCC2=O)c(Cl)c1Cn1nc(C)oc1=O [Compound 6]", "Measurement units": "%", "Rice (%) safety (crop damage)": 10}
{"Molecule": "Cc1nn(Cc2c(S(=O)(=O)C(C)C)ccc(C(=O)c3c(C)nn(C)c3O)c2Cl)c(=O)o1 [Compound 100]", "Measurement units": "%", "Rice (%) safety (crop damage)": 2}
{"Molecule": "Cc1nn(Cc2c(S(C)(=O)=O)ccc(C(=O)c3c(C4CC4)nn(C)c3OC(=O)c3c(C)nn(C)c3Cl)c2Cl)c(=O)o1 [Compound 201]", "Measurement units": "%", "Rice (%) safety (crop damage)": 2}
{"Molecule": "Cc1nn(C)c(O)c1C(=O)c1ccc(S(C)(=O)=O)cc1Cl [Control compound B, reference compound]", "Measurement units": "%", "Rice (%) safety (crop damage)": 55}
{"Molecule": "CS(=O)(=O)c1ccc(C(=O)C2C(=O)CCCC2=O)c(Cl)c1CN1CCOCC1 [Control compound C, reference compound]", "Measurement units": "%", "Rice (%) safety (crop damage)": 85}

Data request: Rice (%) safety (crop damage) for Cc1nn(Cc2c(S(C)(=O)=O)ccc(C(=O)c3c(C)nn(C)c3O)c2Cl)c(=O)o1 [Compound 58] ?
Data returned: 5

Data request: Rice (%) safety (crop damage) for CCS(=O)(=O)c1ccc(C(=O)c2c(C)nn(C)c2OC(=O)c2cc(C)nn2C)c(Cl)c1Cn1nc(C)oc1=O [Compound 224] ?
Data returned: 5

Data request: Rice (%) safety (crop damage) for CS(=O)(=O)c1ccc(C(=O)C2C(=O)CCCC2=O)c(Cl)c1 [Control compound A, reference compound] ?
Data returned: 60

* * *

System: crabgrass
Measurement description: Test of herbicidal activity, post-seedling stem and leaf spray in greenhouse, crabgrass
Assay type: in vivo
Experimental conditions: post-seedling stem and leaf spray, dose 75 g a.i/ha
Property name: Crabgrass (%) control effect
Answer with a number only, understood to be in %.

Worked set:
{"Compound": "CCOC1=C(C(=O)c2ccc(S(C)(=O)=O)c(Cn3nc(C)oc3=O)c2Cl)C(=O)CCC1", "Measurement units": "%", "Crabgrass (%) control effect": 75}
{"Compound": "CS(=O)(=O)c1ccc(C(=O)C2C(=O)CCCC2=O)c(Cl)c1 [Control compound A, reference compound]", "Measurement units": "%", "Crabgrass (%) control effect": 25}
{"Compound": "Cc1nn(Cc2c(S(C)(=O)=O)ccc(C(=O)c3c(C)nn(C)c3OC(=O)c3cn(C)nc3C(F)(F)F)c2Cl)c(=O)o1", "Measurement units": "%", "Crabgrass (%) control effect": 75}
{"Compound": "Cc1nn(Cc2c(S(C)(=O)=O)ccc(C(=O)c3c(C4CC4)nn(C)c3OC(=O)c3c(C)nn(C)c3Cl)c2Cl)c(=O)o1", "Measurement units": "%", "Crabgrass (%) control effect": 65}
{"Compound": "Cc1nn(Cc2c(S(C)(=O)=O)ccc(C(=O)c3c(C)nn(C)c3OC(=O)c3c(C(F)(F)F)nn(C)c3Cl)c2Cl)c(=O)o1", "Measurement units": "%", "Crabgrass (%) control effect": 64}
{"Compound": "Cc1nn(Cc2c(S(C)(=O)=O)ccc(C(=O)c3c(C)nn(C)c3OC(=O)c3cnn(C)c3Cl)c2Cl)c(=O)o1", "Measurement units": "%", "Crabgrass (%) control effect": 65}

As a next step, examine the compound that follows.
Data request: Crabgrass (%) control effect for `Cc1nn(Cc2c(S(C)(=O)=O)ccc(C(=O)C3C(=O)CCCC3=O)c2Cl)c(=O)o1` ?
Data returned: 75

* * *

Tested on: crabgrass
Measurement description: Test of herbicidal activity, post-seedling stem and leaf spray in greenhouse, crabgrass
Format: in vivo
Experimental conditions: post-seedling stem and leaf spray, dose 75 g a.i/ha
Procedure: Seeds of broadleaf weeds (abutilon, Solanum nigrum) or gramineous weeds (crabgrass, barnyard grass) were sown into nutrient soil in plastic cups, respectively, and then covered with soil, compacted, watered, and further cultivated in a greenhouse by conventional methods. The stems and leaves of the weeds were sprayed when the weeds reached the 2- to 3-leaf stage. The test compounds of the present application were dissolved in acetone respectively, followed by addition of Tween 80. […]
Measured Crabgrass (%) control effect by item
Answer with a number only, understood to be in %.

Data request: Crabgrass (%) control effect for CS(=O)(=O)c1ccc(C(=O)C2C(=O)CCCC2=O)c(Cl)c1CN1CCOCC1 [Control compound C, reference compound] ?
Data returned: 55

Data request: Crabgrass (%) control effect for `CCS(=O)(=O)c1ccc(C(=O)c2c(C)nn(C)c2OC(=O)c2cc(C)nn2C)c(Cl)c1Cn1nc(C)oc1=O` ?
Data returned: 65

Data request: Crabgrass (%) control effect for Cc1nn(C)c(O)c1C(=O)c1ccc(S(C)(=O)=O)cc1Cl [Control compound B, reference compound] ?
Data returned: 15

* * *

Test system: barnyard grass
Measurement description: Test of herbicidal activity, post-seedling stem and leaf spray in greenhouse, barnyard grass
Type: in vivo
Experimental conditions: post-seedling stem and leaf spray, dose 75 g a.i/ha
Property name: Barnyard grass (%) control effect
Answer with a number only, understood to be in %.

Worked set:
{"Compound": "Cc1nn(C)c(O)c1C(=O)c1ccc(S(C)(=O)=O)cc1Cl [Control compound B, reference compound]", "Property name": "Barnyard grass (%) control effect", "Recorded measurement": 25}
{"Compound": "CS(=O)(=O)c1ccc(C(=O)C2C(=O)CCCC2=O)c(Cl)c1CN1CCOCC1 [Control compound C, reference compound]", "Property name": "Barnyard grass (%) control effect", "Recorded measurement": 60}

Data request: Barnyard grass (%) control effect for CCS(=O)(=O)c1ccc(C(=O)c2c(C)nn(C)c2OC(=O)c2cc(C)nn2C)c(Cl)c1Cn1nc(C)oc1=O [Compound 224] ?
Data returned: 70

Data request: Barnyard grass (%) control effect for Cc1nn(Cc2c(S(C)(=O)=O)ccc(C(=O)c3c(C)nn(C)c3OC(=O)c3cn(C)nc3C(F)(F)F)c2Cl)c(=O)o1 [Compound 166] ?
Data returned: 80

Data request: Barnyard grass (%) control effect for Cc1nn(Cc2c(S(C)(=O)=O)ccc(C(=O)c3c(C)nn(C)c3OC(=O)c3cnn(C)c3Cl)c2Cl)c(=O)o1 [Compound 218] ?
Data returned: 70

Data request: Barnyard grass (%) control effect for CCOC1=C(C(=O)c2ccc(S(C)(=O)=O)c(Cn3nc(C)oc3=O)c2Cl)C(=O)CCC1 [Compound 32] ?
Data returned: 80

Data request: Barnyard grass (%) control effect for Cc1nn(Cc2c(S(C)(=O)=O)ccc(C(=O)c3c(C)nn(C)c3OC(=O)c3c(C(F)(F)F)nn(C)c3Cl)c2Cl)c(=O)o1 [Compound 204] ?
Data returned: 70
